Quick list: EC50, CreLuc reporter, 0.5% hP per entry.
testSystem: T1, human GIP receptor (human, UniProt P48546 22-466)
T1 sequence (looked up): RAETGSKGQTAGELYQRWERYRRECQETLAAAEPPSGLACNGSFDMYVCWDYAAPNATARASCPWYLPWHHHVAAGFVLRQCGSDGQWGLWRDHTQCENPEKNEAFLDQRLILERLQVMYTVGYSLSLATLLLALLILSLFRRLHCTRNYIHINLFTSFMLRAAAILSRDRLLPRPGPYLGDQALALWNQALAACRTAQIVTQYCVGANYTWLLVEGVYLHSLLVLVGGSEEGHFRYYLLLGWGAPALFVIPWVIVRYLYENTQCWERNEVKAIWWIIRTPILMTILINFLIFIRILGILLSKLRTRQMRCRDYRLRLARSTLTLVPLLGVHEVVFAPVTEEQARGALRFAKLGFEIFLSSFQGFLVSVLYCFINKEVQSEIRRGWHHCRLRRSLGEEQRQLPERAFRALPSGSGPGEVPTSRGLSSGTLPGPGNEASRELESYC
measurementNotes: cell-based or functional assay
# output: bare number, implied unit pM

{"columns": ["binder", "EC50, CreLuc reporter, 0.5% hP [pM]"],
 "data": [
  ["YXEGTFTSDYSIXLEKQAQXAFIRHLINKXTRQRY (Aib at 2, 13, 20, 30; Lys29 epsilon-amino: C20DA-gGlu-gGlu-gGlu-gGlu-gGlu-gGlu-eLys; C-terminal amide) [Compound 109]", 300]
]}

Okay, now this binder:
IN: Let me know recorded EC50, CreLuc reporter, 0.5% hP for YXEGTFTSDYSIXLEKQAQXSFVRHLINKXTRQRY (Aib at 2, 13, 20, 30; Lys29 epsilon-amino: C18DA-gGlu-gGlu-gGlu-gGlu-gGlu-gGlu-eLys; C-terminal amide) [Compound 144] , thanks.
OUT: 400
